# test: PAMPA (parallel artificial membrane permeability assay)
# Assay type: in vitro ADME
# run parameters: PAMPA; membrane permeation rate (Pe); 50 mM MOPSO buffer pH 6.5 with 5.0% glycocholic acid, 37° C., 18 hours; read-out: iPAMPA Pe
# Experimental: 4 μL of a phospholipid-organic solvent solution composed of 10% (w/v) of egg lecithin, 0.5% (w/v) of cholesterol and dodecane (all purchased from Fluka) was added to a Millipore 96-well membrane filter (hydrophobic PVDF (polyvinylidene difluoride), pore size 0.45 microm) (purchased from Millipore Japan) to make an artificial phospholipid membrane. […]
Starred links: 1 amine or outer side, 2 acyl side, 3 side chain; linkers in the order of their positions; H or OH if unused. Positions of bridges follow the written chain, without caps; N, C: chain ends. Non-standard residues stand in square brackets, D forms with d. Residues, ends and D or L forms follow the SMILES beside them. *: point of attachment. NMeF = CN[C@@H](Cc1ccccc1)C(=O)O; NMeGABA = CN(CCCC(=O)[*:2])[*:1]; NMeI = CC[C@H](C)[C@H](NC)C(=O)O; NMeβAla = CN(CCC(=O)[*:2])[*:1]; NMeL = CN[C@@H](CC(C)C)C(=O)O; NMeV = CN[C@H](C(=O)O)C(C)C; NMeA = CN[C@@H](C)C(=O)O; Piperidide = C1CCN(*)CC1; Sar = CNCC(=O)O; tBu = CC(C)(C)*
Please go through the items and note down their Papp at 18 hours, 50 µM.
One number for each entry, in ×10⁻⁶ cm/s.

Use these answered entries as a reference point.
CC[C@H](C)[C@@H]1NC(=O)CCCN(C)C(=O)C[C@@H](C(=O)N(C)[C@@H](Cc2ccccc2)C(=O)N(C)[C@@H](Cc2ccccc2)C(=O)N[C@@H](C)C(=O)N2CCCCC2)NC(=O)[C@H](C(C)C)N(C)C(=O)[C@H](CC(C)C)N(C)C(=O)[C@H](C)NC(=O)CN(C)C(=O)[C@H]([C@@H](C)O)NC(=O)[C@H](Cc2ccccc2)N(C)C(=O)[C@H](C)N(C)C1=O [DP-392] ([NMeGABA]I[NMeA][NMeF]T[Sar]A[NMeL][NMeV]D[NMeF][NMeF]A-Piperidide; lactam N-10) | 20
CC[C@H](C)[C@@H]1NC(=O)CN(C)C(=O)[C@H]([C@@H](C)O)NC(=O)[C@H](CC(C)C)N(C)C(=O)[C@H](Cc2ccccc2)N(C)C(=O)CCN(C)C(=O)C[C@@H](C(=O)N2CCCCC2)NC(=O)[C@H](CC(C)C)N(C)C(=O)[C@H](CC(C)C)N(C)C1=O [DP-440] ([NMeβAla][NMeF][NMeL]T[Sar]I[NMeL][NMeL]D-Piperidide; lactam N-9) | 29

Please give Papp at 18 hours, 50 µM, item by item, for the list that follows.
1. CC(C)C[C@@H]1NC(=O)[C@H](C)N(C)C(=O)C[C@@H](C(=O)N2CCCCC2)NC(=O)[C@H](Cc2ccccc2)N(C)C(=O)[C@H](CC(C)C)N(C)C(=O)CN(C)C(=O)[C@H]([C@@H](C)O)NC(=O)[C@H](C)N(C)C(=O)[C@H](C(C)C)N(C)C(=O)[C@H](C)NC(=O)[C@H](CC(C)C)N(C)C(=O)[C@H](Cc2ccccc2)N(C)C1=O [DP-133] ([NMeA]L[NMeF][NMeL]A[NMeV][NMeA]T[Sar][NMeL][NMeF]D-Piperidide; lactam N-12)
2. CC[C@H](C)[C@H]1C(=O)N[C@@H]([C@@H](C)O)C(=O)N[C@@H](CC(C)C)C(=O)N[C@H](C(=O)N2CCCCC2)CC(=O)N[C@H](C)C(=O)N(C)[C@@H](CC(C)C)C(=O)N(C)[C@@H](CC(C)C)C(=O)N(C)[C@@H](Cc2ccccc2)C(=O)N(C)[C@@H](CC(C)C)C(=O)N(C)[C@@H](Cc2ccccc2)C(=O)N[C@@H](C)C(=O)N1C [DP-228] ([dA][NMeL][NMeL][NMeF][NMeL][NMeF]A[NMeI]TLD-Piperidide; lactam N-11)
3. CC(C)C[C@H]1C(=O)N[C@@H](COC(C)(C)C)C(=O)N(C)[C@@H](CC(C)C)C(=O)N[C@H](C(=O)N2CCCCC2)CC(=O)N[C@H](C)C(=O)N(C)[C@@H](C)C(=O)N(C)[C@@H](Cc2ccccc2)C(=O)N(C)[C@@H](CC(C)C)C(=O)N[C@@H]([C@@H](C)O)C(=O)N(C)CC(=O)N1C [DP-170] ([dA][NMeA][NMeF][NMeL]T[Sar][NMeL]S(tBu)[NMeL]D-Piperidide; lactam N-10)

Resp:
30
5.2
43
